tested on: Escherichia coli TOP10; assay: shrunken log2 fold change of peptide-encoding DNA abundance (4.5 h post-induction vs induction); higher = less antimicrobial activity (less host growth inhibition); details: time post-induction: 4.5 h; library: site-saturation at positions 5, 18, 19, 20
So basically: shrunken log2 fold change at -0.1 or higher? That is MET. Lower than -0.1? That is NOT MET.

These solved cases illustrate the format of a correct answer.
Challenge: Can RRIRLRPPRLPRPRPRPLTIPRP be said to have shrunken log2 fold change at or above -0.1?
Response given: MET

Challenge: Can RRIRKRPPRLPRPRPRPHRKPRP be said to have shrunken log2 fold change at or above -0.1?
Response given: MET

Challenge: Can RRIRERPPRLPRPRPRPEPLPRP be said to have shrunken log2 fold change at or above -0.1?
Response given: MET

Challenge: Can RRIRLRPPRLPRPRPRPRYFPRP be said to have shrunken log2 fold change at or above -0.1?
Response given: NOT MET

Challenge: Can RRIRHRPPRLPRPRPRPPFVPRP be said to have shrunken log2 fold change at or above -0.1?
Response given: MET

Challenge: Can RRIRWRPPRLPRPRPRPCKIPRP be said to have shrunken log2 fold change at or above -0.1?
Response given: NOT MET

Others:
Challenge: Can RRIRDRPPRLPRPRPRPPDWPRP be said to have shrunken log2 fold change at or above -0.1?
Response given: MET

Challenge: Can RRIRRRPPRLPRPRPRPCTDPRP be said to have shrunken log2 fold change at or above -0.1?
Response given: NOT MET

----------
system: Escherichia coli TOP10; experiment: shrunken log2 fold change of peptide-encoding DNA abundance (4.5 h post-induction vs induction); higher = less antimicrobial activity (less host growth inhibition); details: time post-induction: 4.5 h; library: site-saturation at positions 5, 18, 19, 20
Entries get a class label from measured shrunken log2 fold change. See ranges: Low = under -0.02, Medium = from -0.02 up to 0.3, High = 0.3 and over

Challenge: Class label required: RRIRQRPPRLPRPRPRPPHNPRP
Response given: High

Challenge: Class label required: RRIRVRPPRLPRPRPRPQPNPRP
Response given: Low

Challenge: Class label required: RRIRARPPRLPRPRPRPFPEPRP
Response given: High

Challenge: Class label required: RRIRLRPPRLPRPRPRPAEPPRP
Response given: Medium

Challenge: Class label required: RRIRQRPPRLPRPRPRPQGVPRP
Response given: Medium

Others:
Challenge: Class label required: RRIRVRPPRLPRPRPRPKKMPRP
Response given: Low

Challenge: Class label required: RRIRTRPPRLPRPRPRPQDYPRP
Response given: Medium

Challenge: Class label required: RRIRLRPPRLPRPRPRPGELPRP
Response given: Medium

Challenge: Class label required: RRIRQRPPRLPRPRPRPRECPRP
Response given: Medium

Challenge: Class label required: RRIRRRPPRLPRPRPRPPHLPRP
Response given: High

----------
tested on: Escherichia coli TOP10; assay: shrunken log2 fold change of peptide-encoding DNA abundance (4.5 h post-induction vs induction); higher = less antimicrobial activity (less host growth inhibition); conditions: time post-induction: 4.5 h; library: site-saturation at positions 5, 18, 19, 20;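 further: peptides expressed intracellularly from a pBAD plasmid library in pooled LB shake-flask culture, induced with 0.3% L-arabinose, DNA abundance read by NGS, three biological replicates, DESeq2 with apeglm shrinkage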
Listed here: items and their measured shrunken log2 fold change.
Write the value as a bare number.

The value of shrunken log2 fold change measured for the sequence RRIRNRPPRLPRPRPRPSYNPRP turned out to be -0.974

The value of shrunken log2 fold change measured for the sequence RRIRYRPPRLPRPRPRPFMRPRP turned out to be -0.499

The value of shrunken log2 fold change measured for the sequence RRIRQRPPRLPRPRPRPDDGPRP turned out to be -0.171

The value of shrunken log2 fold change measured for the sequence RRIRWRPPRLPRPRPRPKIEPRP turned out to be -0.0252

The value of shrunken log2 fold change measured for the sequence RRIRMRPPRLPRPRPRPRCNPRP turned out to be 0.105

The value of shrunken log2 fold change measured for the sequence RRIRQRPPRLPRPRPRPHNSPRP turned out to be -0.596

The value of shrunken log2 fold change measured for the sequence RRIRSRPPRLPRPRPRPILAPRP turned out to be -0.162

The value of shrunken log2 fold change measured for the sequence RRIRERPPRLPRPRPRPYLRPRP turned out to be -0.319

The value of shrunken log2 fold change measured for the sequence RRIRVRPPRLPRPRPRPFVWPRP turned out to be -0.03

The value of shrunken log2 fold change measured for the sequence RRIRMRPPRLPRPRPRPVIVPRP turned out to be -0.313

Others:
The value of shrunken log2 fold change measured for the sequence RRIRNRPPRLPRPRPRPKRVPRP turned out to be 0.148

The value of shrunken log2 fold change measured for the sequence RRIRQRPPRLPRPRPRPLFIPRP turned out to be -0.673

The value of shrunken log2 fold change measured for the sequence RRIRQRPPRLPRPRPRPVILPRP turned out to be -0.0369

The value of shrunken log2 fold change measured for the sequence RRIRGRPPRLPRPRPRPGDFPRP turned out to be 0.00388

The value of shrunken log2 fold change measured for the sequence RRIRQRPPRLPRPRPRPTMRPRP turned out to be 0.86
